For each record, write down the corresponding self-cleavage.
B1: CPEB3 Ribozyme (parent)
chain: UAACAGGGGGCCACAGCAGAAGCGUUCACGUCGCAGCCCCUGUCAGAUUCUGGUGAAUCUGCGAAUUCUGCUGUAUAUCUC

Variants of: B1
testDetails: self-cleavage, relative activity (ratio to wild type); higher = more cleavage; in vitro, sequencing
One number for each entry.

Worked cases, self-cleavage given:
querysequence=UAACAGGGGGCCUCAGCAGAAGCGUUCACGUCUCAGCCCCUGUCAGAUUCUGGUGAAUCUGCGAAUUCUGCUGUAUAUCUC measuredvalue=0.11
querysequence=UAACAGGGGGCCACAGCAGAAGCGUUCACGUCGCAGCCCCUGCCAGAUUCUGGUGAAUCUGCGUAUUCUGCUGUAUAUCUC measuredvalue=0.29
querysequence=UAACAGGGGGCCCCAGCAGAAGCGUUCACGUCGCAGCCCCUGUCAGAUUCUGGUGAAUCAGCGAAUUCUGCUGUAUAUCUC measuredvalue=0.52
querysequence=UAACAGGGGGCCACAGCAGAAGCGUUCACGCCGCAGCCCCUGUCAGAUUCUGGUGAAUCUGAGAAUUCUGCUGUAUAUCUC measuredvalue=0.23
querysequence=UAACAGGGGGCCAAAGCAGAAGCGUUCUCGUCGCAGCCCCUGUCAGAUUCUGGUGAAUCUGCGAAUUCUGCUGUAUAUCUC measuredvalue=0.76

Go through the items and report each one's self-cleavage.
1. UAACAGGGGGCCACAGCAGAAGCGCUCACGUCGCAGCCCCUGUCAGAUUCUGGUGAAUCUGCGAAUUCUGCUGUAUUUCUC
2. UAACAGGGGGCCAAAGCAGAAGCGUUCACGUCGCAGCCCCUGUCAGAUUCUGGUGGAUCUGCGAAUUCUGCUGUAUAUCUC
3. UAACAGGGGGCCACAGCAGAAGCGUUCACGUCGCAGCCCCUGUCAGAUUCUGGUGAAUCCGCGAAUUCUGCUGUAAAUCUC
4. UAACAGGGGGCCACAGUAGAAGCGCUCACGUCGCAGCCCCUGUCAGAUUCUGGUGAAUCUGCGAAUUCUGCUGUAUAUCUC
5. UAACAGGGGGCCACGGCAGAAGCGUUCACGUCGCAGCCCCUGUCAGAUUCUGGUGAAUCUGCGAUUUCUGCUGUAUAUCUC
6. CAACAGGGGGCCACAGCAGAAGCGUUCACGUCGCAGCCCCUAUCAGAUUCUGGUGAAUCUGCGAAUUCUGCUGUAUAUCUC

OUT:
0.26
1.1
0.58
0.25
0.23
0.45

Go through the items and report each one's self-cleavage.
1. UAACAGGGGGCCACAGCAGUUGCGUUCACGUCGCAGCCCCUGUCAGAUUCUGGUGAAUCUGCGAAUUCUGCUGUAUAUCUC
2. UAACAGGGGGCCACAGCAGAAGCGUUCACGUCGCAGCCCCUGUCAGGUUCUGGUGAAUCUGCGAAUUCCGCUGUAUAUCUC

OUT:
[0.29, 0.57]

Go through the items and report each one's self-cleavage.
1. UAACAGGGGGCCAUAGCAGAAGCGUUCACGUCGCAGCCCCUGUCAGAUUCUGGUGAAUCAGCGAAUUCUGCUGUAUAUCUC
2. UAACAGGGGGCCACAGCAGAAGCGCUCACGUCGCAGCCCCUGUCAAAUUCUGGUGAAUCUGCGAAUUCUGCUGUAUAUCUC
3. UAACAGGGGGCCACAGCUGAAGCGUUCACGUCGCAGCCCCUGUCAGAUUCUGGUGAAUCUGCGAAUUCUGCUGUAUAUCCC
4. UAACAGGGGGCCACAGCAGAAGCGUUCACGUCGCAGCCCCUGUCAGGUUCUGGUGAAUCUGCAAAUUCUGCUGUAUAUCUC
5. UAACAGGUGGCCACAGCGGAAGCGUUCACGUCGCAGCCCCUGUCAGAUUCUGGUGAAUCUGCGAAUUCUGCUGUAUAUCUC
6. CAACAGGGGGCCACUGCAGAAGCGUUCACGUCGCAGCCCCUGUCAGAUUCUGGUGAAUCUGCGAAUUCUGCUGUAUAUCUC
7. UAACAGGGGCCCACAGCAGAAGCGUUCACGUCGCAGCCCCUGUCAGAUUCUGGUGAAUCAGCGAAUUCUGCUGUAUAUCUC
8. UAACGGGGGGCCACAGCAGAAGCGUUCACGUCGCAGCCCCUGUCAGAUACUGGUGAAUCUGCGAAUUCUGCUGUAUAUCUC

OUT:
1. 0.53
2. 0.28
3. 0.52
4. 0.88
5. 0.14
6. 0.55
7. 0.12
8. 0.53
